# Test system: rodent lifetime carcinogenesis bioassay, tumor incidence TD50
# EXPERIMENT_SUMMARY: carcinogenic potency in animals, long-term in vivo studies, CPDB compilation (AID 1745844)
# APPLIED_CONDITIONS: mouse; strain B6C3F1; females; in feed; site: Harderian gland; lesion: adenoma; dosed 107 weeks; study length 107 weeks
MEASURE_NAME: TD50

Prompt: Can you look up the measured TD50 of CN(C)c1ccc(C(=C2C=CC(=[N+](C)C)C=C2)c2ccc(N(C)C)cc2)cc1 for me?
Completion: 305 mg/kg/day

----------
# Test system: rodent lifetime carcinogenesis bioassay, tumor incidence TD50
# EXPERIMENT_SUMMARY: carcinogenic potency in animals, long-term in vivo studies, CPDB compilation (AID 1745844)
# APPLIED_CONDITIONS: rat; strain Osborne-Mendel; females; in feed; site: lymphoreticular system; lesion: one or several types; types not named; dosed 104 weeks; study length 104 weeks
Calls of active or inactive are those of the source. How the calls were made is not given here.
MEASURE_NAME: TD50

Prompt: Query TD50 on rodent lifetime carcinogenesis bioassay, tumor incidence TD50 for ClC1=C(Cl)[C@]2(Cl)[C@H]3[C@H]([C@@H]4C=C[C@H]3C4)[C@@]1(Cl)C2(Cl)Cl
Completion: 4.35 mg/kg/day (inactive)

----------
For each record, write down the corresponding TD50.
# Tested on: rodent lifetime carcinogenesis bioassay, tumor incidence TD50
# EXPERIMENT_SUMMARY: carcinogenic potency in animals, long-term in vivo studies, CPDB compilation (AID 1745844)
# APPLIED_CONDITIONS: rat; strain Charles River CD (Sprague-Dawley); females; i.p.; site: peritoneum; lesion: sarcoma; dosed 26 weeks; study length 78 weeks
Numbered stars: 1 amine (or outer) side, 2 acyl side, 3 side chain; on linkers, the order of the positions; unused ones are H or OH. Bridge positions count the residues as written; N and C are the ends. Square brackets hold non-standard residues; d marks the D form. Peptide text beside a SMILES is read from it. I, II: the chains in the order shown. Actinocin(9to1) = Cc1c2oc3c(C)ccc(C(=O)[*:1])c3nc-2c(C(=O)[*:2])c(N)c1=O; NMeV = CN[C@H](C(=O)O)C(C)C; Sar = CNCC(=O)O

O[C@@H]([C@H](O)[C@H](O)CBr)[C@H](O)CBr ... 79.2 mg/kg/day

Prompt: Which TD50 reading was recorded for the molecule Cc1c2oc3c(C)ccc(C(=O)N[C@@H]4C(=O)N[C@H](C(C)C)C(=O)N5CCC[C@H]5C(=O)N(C)CC(=O)N(C)[C@@H](C(C)C)C(=O)O[C@@H]4C)c3nc-2c(C(=O)N[C@@H]2C(=O)N[C@H](C(C)C)C(=O)N3CCC[C@H]3C(=O)N(C)CC(=O)N(C)[C@@H](C(C)C)C(=O)O[C@@H]2C)c(N)c1=O (I: T[dV]P[Sar][NMeV] / II: T[dV]P[Sar][NMeV]; ester I:1-I:C, II:1-II:C; linker I:N-II:N via Actinocin(9to1)) ?
Completion: 0.00199 mg/kg/day

----------
# Tested on: rodent lifetime carcinogenesis bioassay, tumor incidence TD50
# EXPERIMENT_SUMMARY: carcinogenic potency in animals, long-term in vivo studies, CPDB compilation (AID 1745844)
# APPLIED_CONDITIONS: mouse; strain Charles River CD1; males; in drinking water; site: liver; lesion: all vascular tumors; dosed 104 weeks; study length 104 weeks
MEASURE_NAME: TD50

Prompt: Quick check: TD50 on rodent lifetime carcinogenesis bioassay, tumor incidence TD50, item CN(C)N ?
Completion: 6.47 mg/kg/day
